System: UACC-257
Assay: NCI tumour cell line growth inhibition, 48 h
Calls of active or inactive are those of the source. Rule as the data show it: active = GI50 up to about 1.1 µM and inactive = higher.
Outcomes: active, inactive

INSERT INTO assay_data (molecule, answer_label) VALUES
  ('CCc1cc(C)cc2[n+]1CC=C2C.[O-][Cl+3]([O-])([O-])[O-]', 'inactive'),
  ('NC(CCCCP(=O)(O)O)C(=O)O (configuration not stated)', 'inactive'),
  ('O=C1Nc2ccc([N+](=O)[O-])cc2/C1=N/NC(=S)Nc1ccc([N+](=O)[O-])cc1', 'inactive'),
  ('COc1ccc2cc3n(c(=O)c2c1)CCc1c-3cc(OC)c(OC)c1OC', 'inactive'),
  ('O=C(O)CCSC1=NCCN1', 'inactive'),
  ('CN(C)c1ccc(/C=N/n2c(-c3ccccc3)nc3ccccc3c2=O)cc1', 'inactive'),
  ('NC(CO)c1ccccc1 (configuration not stated)', 'inactive'),
  ('CC1=C2C(O)C(C(C)CO)C(O)CC2(C)C(O)CC1 (configuration not stated)', 'inactive'),
  ('COc1cccc2c1C(=O)c1c(O)c3c(c(O)c1C2=O)C[C@@](O)(C(=O)CO)CC3OC1CC(NCCCCC(OC(C)=O)OC(C)=O)C(O)C(C)O1 (some centres not stated)', 'active'),
  ('CC(C)Cn1cnc2c(Sc3c([N+](=O)[O-])ncn3C)nc(N)nc21', 'inactive'),
  ('O=C1CC(c2cccc(Br)c2)n2cccc21 (configuration not stated)', 'inactive'),
  ('O=C1CCCn2c3ccccc3c3ccnc1c32', 'inactive'),
  ('CC1(c2ccc(Cl)s2)CC(c2ccc(Cl)s2)=C(C#N)C(=C(C#N)C#N)N1 (configuration not stated)', 'inactive'),
  ('CCN(CCO)CCNc1ccc(C)c2sc3ccccc3c(=O)c12', 'inactive'),
  ('CC(=O)Oc1c(C)c(-c2ccccc2)c(C)c(-c2ccccc2)c1C(=S)c1ccccc1', 'inactive'),
  ('O=C(CO)C1CC2C=CC1C2 (configuration not stated)', 'inactive'),
  ('CN(C)CCNC(=O)c1cccc2c1Oc1cccc([N+](=O)[O-])c1O2', 'inactive');
